Reference source: paper PMC9482650

- target.under.test: PARD3_3, Q8TEW0
- Sequence (Q8TEW0 582-685): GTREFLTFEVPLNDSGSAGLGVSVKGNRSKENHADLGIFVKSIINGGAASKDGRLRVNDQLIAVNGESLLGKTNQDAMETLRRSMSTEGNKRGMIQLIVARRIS
- assay.info: holdup assay
- Design: key: below the threshold = too weak to quantify, mostly under pKd 3.1 to 4
- cond: plain residues with an end cap or a label only (N-terminal biotin on a linker: ado-ado)
measured.quantity: pKd

# example entries with known answers
RDPPAEWTRV [PTPN18, Q99952]
3.54
PTPDLPQTRV [KLHDC7A, Q5VTJ3]
below the threshold
EDPRVEVTQF [SLC22A9, Q8IVM8]
below the threshold
EPQYQPGENL [SRC, P12931]
3.6

Quick one: give me pKd for each item below, same order please.
1. AEASVACSLC [PTGIR, P43119]
2. TRKRSGEAAV [PFKM, P08237]
3. VLYPREGTEV [FOXI1, Q12951]
4. LESTTVGTSV [KARS1, Q15046]
5. DFLSTFHIRI [CIB2, O75838]

[out]
1: below the threshold; 2: below the threshold; 3: below the threshold; 4: below the threshold; 5: 4.28

Quick request: pKd for each listed item, please.
1. PSVGSKKTVL [REELD1, A0A1B0GV85]
2. TISFTQTSQF [SLC1A1, P43005]
3. ARESQKVSHV [FAM110B, Q8TC76]
4. TGLWKHETTV [ADGRA3, Q8IWK6]
5. DGVNEKVSCV [HTR2A, P28223]
6. MQHQRTHTRV [ZSCAN30, Q86W11]
7. MHIQEKGFHV [EPHA6, Q9UF33]
8. NVYGIESVKI [GRIA2, P42262]

[out]
below the threshold
below the threshold
below the threshold
3.54
below the threshold
below the threshold
below the threshold
3.78
